B1: LINE1-full (parent)
chain: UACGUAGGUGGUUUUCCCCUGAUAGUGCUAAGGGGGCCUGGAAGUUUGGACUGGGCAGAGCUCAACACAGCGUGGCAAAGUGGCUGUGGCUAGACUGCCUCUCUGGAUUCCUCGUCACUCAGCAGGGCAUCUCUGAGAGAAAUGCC

# Variants of: B1
# ASSAY_PROCEDURE: self-cleavage, relative activity (ratio to wild type); higher = more cleavage; in vitro, sequencing; the parent is a self-cleaving ribozyme
Decision: self-cleavage compared against 1; not below it gives 1, below it gives 0.

SEQUENCE_CHAIN	ASSIGNED_CATEGORY
UACGUAGGUGGUUUUCCCCUGAUAGUGCUAAGGGGGCCUGGAAGUUUGGACUGGGCAGAGCUCAACACAGCGUGGCAAAGUGGCUGUGGCUAGACUGCCUCUCUGGAUUCCUCGUCACUCAUCAGGGCAUCUCUGAGAGAAAUGCC [G122U]	1
UACGUAGGCGGUUUUCCCUUGAUAGUGCUAAGGGGGCCUGGAAGUUUGGACUGGGCAGAGCUCAACACAGCGUGGCAAAGUGGCUGUGGCUAGACUGCCUCUCUGGAUUCCUCGUCACUCAGCAGGGCAUCUCUGAGAGAAAUGCC [U9C C19U]	1
UACGUAGGUGGUUUUCCCCUGAUAGCGCUAAGGGGGCCUGGAAGUUUGGACUGGGCAGAGCUCAACACAGCGUGGCAAAGUGGCUGUGGCUAGACUGCCUCUCUGGAUUCCUCGUCACUCAGCAGGGCAUCUCAGAGAGAAAUGCC [U26C U134A]	1
UACGUAGGUGGUUUUCCCCUGAUAGUGCUAAGGGGGCCUGGAAGUUUGGACUGGGCAGAGCUCAACACAGCGUGGCAAAGUGGCUGUGGCUAGACUGCCUCUCUGGAAUCCUCGUCACACAGCAGGGCAUCUCUGAGAGAAAUGCC [U108A U119A]	0
UACGUAGGUGGUCUUCCCCUGAUAGUGCUAACGGGGCCUGGAAGUUUGGACUGGGCAGAGCUCAACACAGCGUGGCAAAGUGGCUGUGGCUAGACUGCCUCUCUGGAUUCCUCGUCACUCAGCAGGGCAUCUCUGAGAGAAAUGCC [U13C G32C]	0

Problem: Does UGCGUAGGUGGUUUUCCCCUGAUAGUGCUAAGGGGGCCUGGAAGUUUGGACUGGGCAGAGCUCAACACAGCGUGGCAAAGUGGCUGCGGCUAGACUGCCUCUCUGGAUUCCUCGUCACUCAGCAGGGCAUCUCUGAGAGAAAUGCC [A2G U87C] have a reported self-cleavage of at least 1?
Solution: 0

Problem: Does UACGUAGGUGGUUUUCCCCUGAUAGUGCUAAGGGGGCCUGGAAGUUUGGACUGGGCAGAGCUCAACACAGCGUGGCUAAGUGGCUGUGGCUAGACUGCCUCUCUGGAUUCCUCGUCACUCAGCAUGGCAUCUCUGAGAGAAAUGCC [A77U G125U] have a reported self-cleavage of at least 1?
Solution: 1
